Values were extracted from the supplement of paper PMC4862054.

System: HCC1937
Assay: normalised viability (% of control), CellTiter-Blue; higher = more viable cells (about 100 = DMSO control)
Details: 10 nM; incubation time: 72 h
Assignment: determine reported normalised viability for the given compounds.
Numbers only, in %.

Below are worked cases with known answers.
| Smiles Representation | Unit Spec | normalised viability |
| --- | --- | --- |
| COC1=C2C[C@@H](C)C[C@H](OC)[C@H](O)[C@@H](C)/C=C(\C)[C@H](OC(N)=O)[C@@H](OC)/C=C\C=C(/C)C(=O)NC(=CC1=O)C2=O | % | 115 |
| C#Cc1cccc(Nc2ncnc3cc(OC)c(OCCCCCCC(=O)NO)cc23)c1 | % | 71.7 |
| COc1cc(Nc2ncc(F)c(Nc3ccc4c(n3)NC(=O)C(C)(C)O4)n2)cc(OC)c1OC | % | 105 |

// for each compound in input: emit normalised viability
1. COC1=CC(c2cc3ccccc3[nH]2)=N/C1=C\c1[nH]c(C)cc1C
2. C[C@@]1(C(=O)Nc2ccc(F)nc2)CCCN1c1nc(Nc2cc(C3CC3)n[nH]2)c2cccn2n1

Found:
1. 63
2. 127

Lookup: Check the records and state normalised viability for CN1CCN(c2ccc3nc(-c4c(N)c5c(F)cccc5[nH]c4=O)[nH]c3c2)CC1
Found: 116
